Target: Angiotensin-II-Receptor (Rattus norvegicus)
Sequence (P25095 1-359): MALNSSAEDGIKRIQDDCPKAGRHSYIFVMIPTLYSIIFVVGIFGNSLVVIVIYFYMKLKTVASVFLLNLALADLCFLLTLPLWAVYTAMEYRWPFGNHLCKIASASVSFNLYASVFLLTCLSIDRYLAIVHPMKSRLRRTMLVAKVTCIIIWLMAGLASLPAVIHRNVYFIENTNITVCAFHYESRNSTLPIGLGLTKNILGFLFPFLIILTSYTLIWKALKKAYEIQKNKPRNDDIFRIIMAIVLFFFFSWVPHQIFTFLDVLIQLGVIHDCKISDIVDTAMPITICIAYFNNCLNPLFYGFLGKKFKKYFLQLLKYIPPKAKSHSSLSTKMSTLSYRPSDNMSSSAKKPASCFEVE
ASSAY ENDPOINT: IC50 (nM)

CCCc1nc2c(C)cc(NC(=NC#N)NC)cc2n1Cc1ccc(-c2ccccc2C(=O)O)cc1 [Substance A] = 11
CCCc1nc2c(C)cc(NC(=C[N+](=O)[O-])N(C)C)cc2n1Cc1ccc(-c2ccccc2-c2nnn[nH]2)cc1 [Substance F] = 2
CCc1nc2c(C)cc(Nc3c(N(C)C)c(=O)c3=O)cc2n1Cc1ccc(-c2ccccc2C(=O)O)cc1 [Substance G] = 17

A. CCCc1nc2c(C)cc(NC(=NC#N)N(C)C)cc2n1Cc1ccc(-c2ccccc2-c2nnn[nH]2)cc1 [Substance B]
B. CCCc1nc2c(C)cc(NC(=NS(N)(=O)=O)NC)cc2n1Cc1ccc(-c2ccccc2C(=O)O)cc1 [Substance E]
Which of the two gives a bigger number for IC50: A or B ? # respond with the chosen item's label
B
(B: 56 nM, A: 3 nM)
